# run.description: water-solubility
# Type: physicochemical
# condition.context: in water
quantity.measured: solubility (µg/mL)
One number for each entry, in µg/mL.

Entry "O=S1(=O)CCNCN1" needs its solubility filled in; supply it.
8000
